# targetDesc: Gamma-aminobutyric acid receptor subunit alpha-1 (Homo sapiens) (UniProt P14867)
# Sequence (whole entry): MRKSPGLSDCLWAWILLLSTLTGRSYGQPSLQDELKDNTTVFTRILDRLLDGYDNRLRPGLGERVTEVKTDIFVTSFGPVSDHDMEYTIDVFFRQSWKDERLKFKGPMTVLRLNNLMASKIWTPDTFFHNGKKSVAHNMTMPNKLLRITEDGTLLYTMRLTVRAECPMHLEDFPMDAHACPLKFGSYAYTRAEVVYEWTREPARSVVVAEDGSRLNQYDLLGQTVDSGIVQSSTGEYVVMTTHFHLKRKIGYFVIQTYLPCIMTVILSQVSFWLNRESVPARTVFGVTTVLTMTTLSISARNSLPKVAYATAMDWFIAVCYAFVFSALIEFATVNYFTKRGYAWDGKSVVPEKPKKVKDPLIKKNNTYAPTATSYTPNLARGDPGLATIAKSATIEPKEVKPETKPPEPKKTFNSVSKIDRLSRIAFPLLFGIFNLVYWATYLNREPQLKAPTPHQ
# methodDescription: Efficacy at gamma-aminobutyric acid A receptor, alpha 1-ion channel relative to chlorodiazepoxide.
# key: entry, value: Efficacy
measuredProperty: Efficacy

smilesinput=Cc1csc(-c2cc(-c3ccccc3C)c3n(c2=O)CCCc2ccncc2-3)n1 measuredproperty=Efficacy measurement=0.08
smilesinput=Cc1csc(-c2cc(-c3ccc(C#N)cc3)c3n(c2=O)CCCc2ccncc2-3)n1 measuredproperty=Efficacy measurement=-0.04
smilesinput=Cc1csc(-c2cc(-c3cncnc3)c3n(c2=O)CCCc2ccncc2-3)n1 measuredproperty=Efficacy measurement=-0.03
smilesinput=Cc1csc(-c2cc(-c3cccn3C)c3n(c2=O)CCCc2ccncc2-3)n1 measuredproperty=Efficacy measurement=0
smilesinput=Cc1csc(-c2cc(-c3ccn(C)n3)c3n(c2=O)CCCc2ccncc2-3)n1 measuredproperty=Efficacy measurement=0.29
smilesinput=Cc1csc(-c2cc(-c3nccn3C)c3n(c2=O)CCCc2ccncc2-3)n1 measuredproperty=Efficacy measurement=-0.33
smilesinput=Cc1csc(-c2cc(-c3c(C)noc3C)c3n(c2=O)CCCc2ccncc2-3)n1 measuredproperty=Efficacy measurement=-0.11
smilesinput=Cc1csc(-c2cc(-c3ccnnc3)c3n(c2=O)CCCc2ccncc2-3)n1 measuredproperty=Efficacy measurement=-0.41
smilesinput=Cc1csc(-c2cc(-c3ccoc3)c3n(c2=O)CCCc2ccncc2-3)n1 measuredproperty=Efficacy measurement=0.04
smilesinput=Cc1csc(-c2cc(-c3ccncn3)c3n(c2=O)CCCc2ccncc2-3)n1 measuredproperty=Efficacy measurement=0.03
